System under test: T1, eukaryotic translation initiation factor 4E (eIF4E), full length human (human, UniProt P06730 2-217)
T1 construct: mature; read as P06730; also called eIF4E protein
T1 sequence (P06730 2-217): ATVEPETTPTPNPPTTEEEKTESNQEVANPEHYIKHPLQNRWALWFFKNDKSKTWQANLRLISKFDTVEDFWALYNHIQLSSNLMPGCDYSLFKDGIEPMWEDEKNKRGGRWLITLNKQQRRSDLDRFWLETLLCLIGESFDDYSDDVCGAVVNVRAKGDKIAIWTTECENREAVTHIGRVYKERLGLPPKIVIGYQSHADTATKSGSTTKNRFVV
Method description: fluorescence-based thermal shift assay (FTS), Sypro Red, 10 µM eIF4E, 100 µM peptide
Square brackets hold non-standard residues; d marks the D form. Ends that are not written are not given here. αMeF = C[C@](N)(Cc1ccccc1)C(=O)O; Ac5c = NC1(C(=O)O)CCCC1
Assay metric: ΔT (°C)

Examples with answers:
Binder	ΔT (°C)
KKRYDRE[αMeF]LL[Ac5c]FQF (not fully specified (C-terminus), also called modified 14mer eIF4G1_me5 peptide; helically stabilized peptide) [eIF4G1_me5 peptide (KKRYDRE*LL5FQF)]	14.6 °C
YDREFLL[Ac5c]FAF (not fully specified (C-terminus)) [Tr2_ALA_A5C6 (Tr2_AIB3_A5C with alanine at position 633)]	6.72 °C
YDREFLL[Ac5c]FQA (not fully specified (C-terminus)) [Tr2_ALA_A5C7 (Tr2_AIB3_A5C with F634 replaced with alanine)]	5.48 °C
YDREFLLXFQF (position 631 (printed '3') = 1-amino cyclopropanoic acid; C-terminal amide (-NH2)) [Tr2_AIB3_A3C]	5.67 °C

Ask: Which ΔT (°C) value is on record for YDREFLLXFQF (position 631 (printed '4') = 1-amino cyclobutanoic acid; C-terminal amide (-NH2)) [Tr2_AIB3_A4C] ?
Reply: 5.8 °C

Ask: ΔT (°C) lookup needed for YDAEFLL[Ac5c]FQF (not fully specified (C-terminus)) [Tr2_ALA_A5C2 (Tr2_AIB3_A5C with R626 replaced with alanine)] , thanks.
Reply: 2.69 °C
